assay: microsomal stability, mouse microsomes; type: in vitro ADME; conditions: pooled murine microsomes, pH 7.4; 60 min incubation with mouse microsomes, NADPH, 37 °C
metric.name: remaining at 1 h (%)
Field format: number, assumed %, no unit text.

Hello, please tell me recorded remaining at 1 h for this one: CC(=O)N1CCC(NC(=O)NC23CC4CC(C)(CC(C2)c2ccccc24)C3)CC1 [compound 1, reference compound] 1

###

Entries and their IC50
target: murine sEH (Mus musculus); assay: fluorescent-based sEH inhibition assay, recombinant mouse sEH; conditions: baculovirus expressed recombinant mouse sEH, average of three replicates
Sequence (P34914 whole entry): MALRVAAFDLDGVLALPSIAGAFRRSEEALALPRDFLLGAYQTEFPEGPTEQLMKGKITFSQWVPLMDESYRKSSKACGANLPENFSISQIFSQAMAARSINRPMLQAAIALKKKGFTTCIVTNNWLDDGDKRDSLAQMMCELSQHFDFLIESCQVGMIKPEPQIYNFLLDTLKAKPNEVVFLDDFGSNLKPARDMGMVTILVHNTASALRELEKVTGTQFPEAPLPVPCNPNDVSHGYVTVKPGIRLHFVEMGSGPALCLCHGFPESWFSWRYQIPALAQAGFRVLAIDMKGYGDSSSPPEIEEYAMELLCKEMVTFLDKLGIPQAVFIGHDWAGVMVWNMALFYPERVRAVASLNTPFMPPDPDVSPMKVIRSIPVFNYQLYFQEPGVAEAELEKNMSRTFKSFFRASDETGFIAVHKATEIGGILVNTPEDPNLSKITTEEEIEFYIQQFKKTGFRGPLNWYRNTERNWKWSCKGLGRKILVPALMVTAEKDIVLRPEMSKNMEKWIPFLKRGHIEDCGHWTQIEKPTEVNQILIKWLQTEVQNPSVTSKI
Express your answer in nM, writing the number without its unit.

Here's what some known entries look like.
Given the compound O=C(CC1CCN(c2ccc(C(=O)O)cc2)CC1)NC12CC3CC(F)(CC(C1)c1ccccc13)C2 [10c] , write its reported IC50. 0.7

Return value of IC50 for input CC(C)S(=O)(=O)N1CCC(CC(=O)NC23CC4CC(C)(CC(C2)c2ccccc24)C3)CC1 , no commentary. 0.4

Consider the compound O=C(CC1CCN(c2ccc(C(=O)O)cc2C2CC2)CC1)NC12CC3CC(F)(CC(C1)c1ccccc13)C2 [10d] and give its recorded IC50. 0.2

Please supply the value of reported IC50 for the item CC(C)S(=O)(=O)N1CCC(CC(=O)NC23CC4CC(Cl)(CC(C2)c2ccccc24)C3)CC1 0.4

Report IC50 for N#Cc1ccc(N2CCC(CC(=O)NC34CC5CC(F)(CC(C3)c3ccccc35)C4)CC2)cc1 [10b] 0.4

Tell me its IC50 given CC(C)S(=O)(=O)N1CCC(CC(=O)NC23CC4CC(F)(CC(C2)c2ccccc24)C3)CC1 as the entry. 0.4

Please report IC50 for the following compound: O=C(CC1CCN(c2ccc(C(=O)O)cc2)CC1)NC12CC3CC(Cl)(CC(C1)c1ccccc13)C2 [10e] 0.7

Supply IC50 value. Item: CC(=O)c1ccc(N2CCC(CC(=O)NC34CC5CC(F)(CC(C3)c3ccccc35)C4)CC2)cc1 [10a] 0.7

Further cases:
Hello, please tell me recorded IC50 for this one: CC12CC3CC(NC(=O)CC4CCN(Cc5ccccc5)CC4)(CC(C1)c1ccccc13)C2 3.3

Entry O=C(CC1CCN(Cc2ccccc2)CC1)NC12CC3CC(F)(CC(C1)c1ccccc13)C2 needs its IC50 filled in; supply it. 12.9

Could you please provide reported IC50 for CC(C)S(=O)(=O)N1CCC(CC(=O)NC23CC4CC(C2)c2ccccc2C(C4)C3)CC1 ? Thanks! 0.5

Determine its reported IC50: CC(=O)N1CCC(CC(=O)NC23CC4CC(C)(CC(C2)c2ccccc24)C3)CC1 0.4

Given the compound [2H]C12CC3CC(NC(=O)CC4CCN(S(=O)(=O)C(C)C)CC4)(CC(C1)c1ccccc13)C2 , write its reported IC50. 0.4

###

target: UniProt P34913; assay: fluorescent-based sEH inhibition assay, recombinant human sEH; details: baculovirus expressed recombinant human sEH, average of three replicates
pIC50: −log10 of the molar value.
# label = 1 if pIC50 >= 8 else 0

In plain terms: is recorded pIC50 at least 8 for CC(=O)N1CCC(CC(=O)NC23CC4CC(C)(CC(C2)c2ccccc24)C3)CC1 ? 0

More entries:
Form field: pIC50 at least 8? Entry: O=C(CC1CCN(c2ccc(C(=O)O)cc2C2CC2)CC1)NC12CC3CC(F)(CC(C1)c1ccccc13)C2 [10d] 1

Has O=C(CC1CCN(c2ccc(C(=O)O)cc2)CC1)NC12CC3CC(Cl)(CC(C1)c1ccccc13)C2 [10e] a recorded pIC50 greater than or equal to 8? 1

###

The entries below are paired with their reported melting point.

Please report melting point for the following compound: N#Cc1ccc(N2CCC(CC(=O)NC34CC5CC(F)(CC(C3)c3ccccc35)C4)CC2)cc1 [10b] 180 to 181 °C

Give melting point for the following compound: CC(C)S(=O)(=O)N1CCC(CC(=O)NC23CC4CC(F)(CC(C2)c2ccccc24)C3)CC1 192 to 193 °C

Recall and state the measured melting point for CC(=O)c1ccc(N2CCC(CC(=O)NC34CC5CC(F)(CC(C3)c3ccccc35)C4)CC2)cc1 [10a] . 229 to 230 °C

Output melting point of CC(C)S(=O)(=O)N1CCC(CC(=O)NC23CC4CC(Cl)(CC(C2)c2ccccc24)C3)CC1 163 to 164 °C

Read off the recorded melting point for [2H]C12CC3CC(NC(=O)CC4CCN(S(=O)(=O)C(C)C)CC4)(CC(C1)c1ccccc13)C2 138 to 139 °C

Give recorded melting point. O=C(CC1CCN(Cc2ccccc2)CC1)NC12CC3CC(F)(CC(C1)c1ccccc13)C2 164 to 165 °C

More entries:
Note down melting point recorded for O=C(CC1CCN(c2ccc(C(=O)O)cc2C2CC2)CC1)NC12CC3CC(F)(CC(C1)c1ccccc13)C2 [10d] 190 to 191 °C

Complete the entry with melting point for CC(C)S(=O)(=O)N1CCC(CC(=O)NC23CC4CC(C2)c2ccccc2C(C4)C3)CC1 136 to 137 °C

###

biological target: human sEH (Homo sapiens, UniProt P34913); test: fluorescent-based sEH inhibition assay, recombinant human sEH; conditions: baculovirus expressed recombinant human sEH, average of three replicates
Known pIC50 of a selection of compounds
Hey, just a heads up that pIC50 is the negative log base 10 of the concentration in molar.

A selection of reference data follows.
Identify the reported pIC50 for the following entry. CC(C)S(=O)(=O)N1CCC(CC(=O)NC23CC4CC(C)(CC(C2)c2ccccc24)C3)CC1 [6b] 7.52

State, in one line, measured pIC50 of CC(=O)c1ccc(N2CCC(CC(=O)NC34CC5CC(F)(CC(C3)c3ccccc35)C4)CC2)cc1 [10a] 9.22

Look up pIC50 of [2H]C12CC3CC(NC(=O)CC4CCN(S(=O)(=O)C(C)C)CC4)(CC(C1)c1ccccc13)C2 [6f] and report it. 8.62

Shift focus to the following entry.
Look up and state reported pIC50 for CC(C)S(=O)(=O)N1CCC(CC(=O)NC23CC4CC(F)(CC(C2)c2ccccc24)C3)CC1 [6c] 8.80

###

test: microsomal stability, human microsomes; format: in vitro ADME; settings: pooled human microsomes, pH 7.4; 60 min incubation with human microsomes, NADPH, 37 °C
metric.name: remaining at 1 h
Give your result as the value with the unit written after it.

Return reported remaining at 1 h. Input compound: CC(=O)N1CCC(NC(=O)NC23CC4CC(C)(CC(C2)c2ccccc24)C3)CC1 [compound 1, reference compound] 1%

###

Let's look at some compounds and their measured pIC50.
Molecular target: human sEH (Homo sapiens, UniProt P34913)
Sequence (P34913 1-555): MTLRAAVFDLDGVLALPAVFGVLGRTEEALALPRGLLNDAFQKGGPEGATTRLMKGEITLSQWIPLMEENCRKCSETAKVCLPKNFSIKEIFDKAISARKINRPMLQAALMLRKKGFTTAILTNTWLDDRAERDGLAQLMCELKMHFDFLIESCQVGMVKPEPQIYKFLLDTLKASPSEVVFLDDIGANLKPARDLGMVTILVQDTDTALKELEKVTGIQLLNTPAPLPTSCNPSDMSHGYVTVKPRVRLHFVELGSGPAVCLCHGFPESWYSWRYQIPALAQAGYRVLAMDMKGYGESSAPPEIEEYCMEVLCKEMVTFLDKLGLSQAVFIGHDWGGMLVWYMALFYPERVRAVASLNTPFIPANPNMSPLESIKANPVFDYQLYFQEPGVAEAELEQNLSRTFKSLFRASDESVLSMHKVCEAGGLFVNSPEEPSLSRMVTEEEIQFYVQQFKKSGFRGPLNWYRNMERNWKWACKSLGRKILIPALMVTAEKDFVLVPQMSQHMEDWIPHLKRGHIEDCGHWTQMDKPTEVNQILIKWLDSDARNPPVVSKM
Experiment: fluorescent-based sEH inhibition assay, recombinant human sEH
Conditions: baculovirus expressed recombinant human sEH, average of three replicates
Scale for pIC50: -log10 of concentration given in mol/L; no unit attached.

Known results for compounds:
Enter measured pIC50, system human sEH (Homo sapiens, UniProt P34913), for the compound shown: CC(C)S(=O)(=O)N1CCC(CC(=O)NC23CC4CC(C2)c2ccccc2C(C4)C3)CC1 [6e] 8.55

Param request: pIC50 | system human sEH (Homo sapiens, UniProt P34913) | item CC(C)S(=O)(=O)N1CCC(CC(=O)NC23CC4CC(Cl)(CC(C2)c2ccccc24)C3)CC1 [6d] 9.00

Give reported pIC50 for O=C(CC1CCN(Cc2ccccc2)CC1)NC12CC3CC(F)(CC(C1)c1ccccc13)C2 [6h] (human sEH (Homo sapiens, UniProt P34913)) 7.67

More entries:
Quote human sEH (Homo sapiens, UniProt P34913) pIC50 for entry CC12CC3CC(NC(=O)CC4CCN(Cc5ccccc5)CC4)(CC(C1)c1ccccc13)C2 [6g] . 7.43

Provide pIC50, tested on human sEH (Homo sapiens, UniProt P34913), for N#Cc1ccc(N2CCC(CC(=O)NC34CC5CC(F)(CC(C3)c3ccccc35)C4)CC2)cc1 [10b] . 8.47
